- Test system: SF-295 CNS
- assay.info: NCI tumour cell line growth inhibition, 48 h
quantity.name: GI50

# annotated cases, reported GI50 shown
> print(dat)
                                   compound      system    measured
1  CCOC(=O)CC1C(CNC(=O)NC)OC(n2cnc3c(NC(=O)Nc4ccccc4)ncnc32)C1O[Si](C)(C)C(C)(C)C (stereo not given)  SF-295 CNS     5730 nM
2  O=C(C[n+]1ccn(CC(OCc2ccc(Cl)cc2Cl)c2ccc(Cl)cc2Cl)c1)c1ccc(F)cc1 (stereo not given)  SF-295 CNS     1630 nM
3  CN1CCC(n2cnc(-c3ccc(F)cc3)c2-c2ccnc(Nc3ccccc3)n2)CC1  SF-295 CNS  > 19200 nM
4  COc1ncc(-c2ccc3ncnc(Nc4cccc(Cl)c4)c3c2)cc1NS(C)(=O)=O  SF-295 CNS     1710 nM

Next up:
Specify measured GI50 for Clc1ccc2c(NCCNc3nc(N4CCCCC4)nc4ccccc34)ccnc2c1 . 1710 nM
